assay protocol: LD50 in Swiss mice
experimental conditions: mouse, in vivo, po
measured metric: LD50

Task: Quick check: LD50 of CC1=C(/C=C/C(C)=C/C=C/C(C)=C/C(=O)Nc2ccc(O)cc2)C(C)(C)CCC1 [4-Hydroxyphenyl Retinamide, N-(4-hydroxyphenyl)-all-trans-retinamide] ?
Result: > 400 mg/kg
